Molecular target: T1, human GIP receptor (human, UniProt P48546 22-466)
T1 sequence (looked up): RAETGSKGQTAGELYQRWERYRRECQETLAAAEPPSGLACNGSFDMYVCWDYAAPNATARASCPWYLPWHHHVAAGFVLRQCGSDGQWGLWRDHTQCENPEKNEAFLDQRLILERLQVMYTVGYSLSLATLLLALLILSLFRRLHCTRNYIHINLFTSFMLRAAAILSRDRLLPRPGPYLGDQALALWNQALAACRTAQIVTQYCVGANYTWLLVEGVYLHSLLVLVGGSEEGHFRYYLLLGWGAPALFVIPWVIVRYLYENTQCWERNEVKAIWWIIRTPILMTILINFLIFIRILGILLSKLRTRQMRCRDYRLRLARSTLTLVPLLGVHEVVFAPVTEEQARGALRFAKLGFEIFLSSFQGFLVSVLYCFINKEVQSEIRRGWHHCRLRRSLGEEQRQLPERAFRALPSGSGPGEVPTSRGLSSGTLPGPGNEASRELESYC
Test: cell-based or functional assay
Bridges are numbered along the chain shown (N, C = ends). Where no end group is shown, it is not given here. [ ]: non-standard residue; d: D form. Aib = CC(C)(N)C(=O)O
Experimental endpoint: in vitro Activity Compared to Native Peptide (%), vs GIP

Exercise: So what does the record say about in vitro Activity Compared to Native Peptide (%), vs GIP for H[Aib]QGTFTSDYSKYLDEKRQKEFVQWLLDTKC (bridge 16-20; not fully specified (C-terminus)) [triple agonist of SEQ ID NO: 78] ?
Solution: 0.12%

All values here come from patent US20250114463A1.
